Below is a list of entries, each paired with its recorded GI50 value.
System: SN12C
Assay text: NCI tumour cell line growth inhibition, 48 h
Activity calls are given as the source filed them. No stated cut-off is given here; in the data, active = GI50 up to about 1.1 µM and inactive = higher.
Attribute measured: GI50

{"Compound": "COC(=O)C(=O)C(C(=O)C(=O)Nc1ccc(Cl)cc1Cl)c1nc2ccc(Cl)cc2nc1O (stereo not given)", "Attribute measured": "GI50", "Result": "> 100 µM (inactive)"}
{"Compound": "Cn1c2c(c3ccccc31)CCN1C(=O)C34CCCC3CC21S4 (stereo not given)", "Attribute measured": "GI50", "Result": "> 100 µM (inactive)"}
{"Compound": "Nc1nc(Cl)cc(NCC2(CO)CC(=O)C2)n1", "Attribute measured": "GI50", "Result": "> 100 µM (inactive)"}
{"Compound": "COc1cccc(C23CCN(C)C(CC(O)C2)C3)c1OC (stereo not given)", "Attribute measured": "GI50", "Result": "> 100 µM (inactive)"}
{"Compound": "O=C(c1cccc2cc(O)ccc12)c1cn(CCN2CCOCC2)c2ccccc12", "Attribute measured": "GI50", "Result": "31.8 µM (inactive)"}
{"Compound": "COC(=O)c1ccc(NCC2=CC(=O)c3ccccc3C2=O)cc1", "Attribute measured": "GI50", "Result": "21.8 µM (inactive)"}
{"Compound": "COc1cccc(CC2C(=O)N/C(=N\\C(C)=O)N2C)c1OC(C)=O (stereo not given)", "Attribute measured": "GI50", "Result": "> 100 µM (inactive)"}
{"Compound": "N#CCC1COc2ccccc2O1 (stereo not given)", "Attribute measured": "GI50", "Result": "> 10 µM (inactive)"}
{"Compound": "C[C@@H]1O[C@@H](O[C@H]2[C@H](Oc3cc(O)c4c(=O)cc(-c5ccc(O)cc5)oc4c3)O[C@H](CO)[C@@H](O)[C@@H]2O)[C@H](O)[C@H](O)[C@H]1O", "Attribute measured": "GI50", "Result": "> 100 µM (inactive)"}
{"Compound": "Cc1ccc(C(=O)N(C2CCCCC2)C2CCCCC2)cc1/N=N/N(C)C", "Attribute measured": "GI50", "Result": "15.4 µM (inactive)"}

###

System: OVCAR-8
Assay text: NCI tumour cell line growth inhibition, 48 h
The source made the active and inactive calls. Rule as the data show it: active = GI50 up to about 1.1 µM and inactive = higher.
Labels: Y (active), N (inactive)

{"Molecule": "O=CNc1cccc2c3c([nH]c12)CCCCCC3", "Assigned class": "N"}
{"Molecule": "COc1cc2c(cc1C)NC(=O)/C2=C\\c1cccnc1", "Assigned class": "N"}
{"Molecule": "O=[N+]([O-])c1cccc(C2=NN(c3ccccc3)C3c4cc(Br)ccc4OCC23)c1 (stereo not drawn)", "Assigned class": "N"}
{"Molecule": "N=CCCN(CCC=N)c1ccc(/C=C2\\CN(NC(=O)c3ccc(Cl)cc3)C(c3ccccc3)=N2)cc1", "Assigned class": "N"}
{"Molecule": "CCOC(=O)CC1c2ccc(O)cc2OC(=O)C1c1ccc([N+](=O)[O-])cc1 (stereo not drawn)", "Assigned class": "N"}
{"Molecule": "FC(F)(F)c1ccccc1C1SCc2nc3ccccc3n21 (stereo not drawn)", "Assigned class": "N"}
{"Molecule": "CCOC(=O)NC(=O)c1cn(CCN2CCN(C(=O)NCCCCCCNC(=O)N3CCN(CCn4cc(C(=O)NC(=O)OCC)c(=O)n(CCN(CC)CC)c4=O)CC3)CC2)c(=O)n(CCC(CC)CC)c1=O", "Assigned class": "N"}
{"Molecule": "O=C1NC(=S)NC(=O)C1=C(O)Nc1ccccc1", "Assigned class": "N"}
{"Molecule": "COC(=O)c1ccc(NCC2=CC(=O)c3ccccc3C2=O)cc1", "Assigned class": "N"}
{"Molecule": "Cc1ccc(C(=O)c2nnc(C(=O)c3ccc(C)cc3)nn2)cc1", "Assigned class": "N"}
{"Molecule": "CCOC(=O)c1cc2c([nH]1)C(=O)CC1=C2CCN1Cc1ccccc1", "Assigned class": "N"}
{"Molecule": "Nc1nc(=O)n(C2OC(CO)C(O)C2O)cc1F (stereo not drawn)", "Assigned class": "Y"}
{"Molecule": "N#Cc1c(-c2ccco2)c2c(n(C3OC(CO)C(O)C(O)C3O)c1=S)CCCC2 (stereo not drawn)", "Assigned class": "N"}
{"Molecule": "C[C@H](OCc1ccccc1)C(=O)N1CCS(=O)(=O)N2CCC[C@@H]2C1=O", "Assigned class": "N"}
{"Molecule": "CC(C)(C)OC(=O)c1ccc(NCC2=C(Br)C(=O)C=CC2=O)cc1", "Assigned class": "N"}
{"Molecule": "COc1cc2c(cc1OC)[C@@](C)(C(O)C(O)C(C)(C)O)NCC2 (stereo partly drawn)", "Assigned class": "N"}
{"Molecule": "Nc1nc(Cl)c2ncn(Cc3cccc(CCl)c3)c2n1", "Assigned class": "N"}
{"Molecule": "COC(=O)C(=O)C(C(=O)C(=O)Nc1ccc(Cl)cc1Cl)c1nc2ccc(Cl)cc2nc1O (stereo not drawn)", "Assigned class": "N"}
{"Molecule": "Sc1nn2c(COc3ccc(Cl)cc3)nnc2s1", "Assigned class": "N"}
{"Molecule": "O=c1c2ccccc2oc2ccccc12.Oc1cccc2cccnc12", "Assigned class": "N"}
{"Molecule": "COc1cc(C)c(C2NC(=O)c3ccccc3N2)cc1C (stereo not drawn)", "Assigned class": "Y"}
{"Molecule": "ClC(Cl)[Si]12OCCN(CCO1)CCO2", "Assigned class": "N"}
{"Molecule": "N#CN1C2CCC1CC(=O)C2", "Assigned class": "N"}
{"Molecule": "COc1cc(C2S/C(=C/c3ccccc3)C(=O)N2c2cc(Cl)ccc2Cl)cc(OC)c1OC (stereo not drawn)", "Assigned class": "N"}
{"Molecule": "O=C1/C(=C\\c2ccccc2)CN(C(=O)CCN2CCCCC2)C/C1=C/c1ccccc1", "Assigned class": "Y"}
{"Molecule": "O=C(NCCN1CCOCC1)c1ccc(I)cc1", "Assigned class": "N"}
{"Molecule": "CC12CCCCC1(C)C2Sc1ccccc1 (stereo not drawn)", "Assigned class": "N"}
{"Molecule": "O=C(N[C@H](CO)[C@H](O)c1ccc([N+](=O)[O-])cc1)C(Cl)Cl", "Assigned class": "N"}
{"Molecule": "CCCCCCCCCN1CCC(=O)C(C(=O)OC)C1 (stereo not drawn)", "Assigned class": "N"}
{"Molecule": "O[C@H]1[C@H](O)[C@@H](O)CN2CC[C@H](O)[C@H]12", "Assigned class": "N"}
{"Molecule": "O=C1C=CC(=O)c2ncccc21", "Assigned class": "N"}
{"Molecule": "O=C(Nc1ccc2[nH]c(C(=O)N3CC(CCl)c4c3cc([N+](=O)[O-])c3ccccc43)cc2c1)c1cc2ccccc2o1 (stereo not drawn)", "Assigned class": "N"}
{"Molecule": "CCOC(=O)/C(=C/NC(=S)Nc1c(CC)cccc1C(C)(C)C)C(=O)c1ccccc1", "Assigned class": "N"}
{"Molecule": "CCSC1SC(c2ccccc2)(c2ccccc2)c2ccccc21 (stereo not drawn)", "Assigned class": "N"}
{"Molecule": "CCc1n[nH]c(=O)n1/N=C/c1ccc(C)cc1", "Assigned class": "N"}
{"Molecule": "C[C@H](CCC(=O)O)[C@H]1CC[C@H]2[C@@H]3C(=O)C[C@@H]4C[C@H](O)CC[C@]4(C)[C@H]3C[C@H](O)[C@]12C", "Assigned class": "N"}
{"Molecule": "O=C(O)c1ccccc1CC(Cc1ccccc1)C(=O)O (stereo not drawn)", "Assigned class": "N"}
{"Molecule": "CC1NC(=O)c2c(-c3ccccc3)nn(-c3ccccc3)c2NC1=O (stereo not drawn)", "Assigned class": "N"}
{"Molecule": "O=C(O)C(=O)/C=C\\c1ccc(Cl)cc1", "Assigned class": "N"}
{"Molecule": "Nc1cc([N+](=O)[O-])ccc1C(=O)N1CCC[C@H]1CO", "Assigned class": "N"}
{"Molecule": "O=[N+]([O-])c1ccc([I+]c2ccccc2)cc1", "Assigned class": "N"}
{"Molecule": "C[C@]12CC/C(=N\\OCCN3CCCC3)C=C1CCC1C2CC[C@@]2(C)C1CC[C@]2(C)O (stereo partly drawn)", "Assigned class": "N"}
{"Molecule": "Cc1cccc(/C=N/NC(=S)NC(C)(C)C)n1", "Assigned class": "N"}
